# Growth zone per entry
# Tested on: Escherichia coli
# method: Compound (50 mM) was tested for the ability to stimulate growth of Escherichia coli RW 193 at 18 h
# Type: functional
Write the value in mm as a bare number.

Some solved entries appear below for comparison.
molecule | targetOfAssay | unitsOfMeasure | Growth zone
CN(O)C(=O)CCC(=O)N(CCCCNC(=O)c1cccc(O)c1O)CCCNC(=O)c1cccc(O)c1O | Escherichia coli | mm | 21
CN(O)C(=O)CCC(=O)NCCCCN(CCCNC(=O)CCC(=O)N(C)O)C(=O)CCC(=O)N(C)O | Escherichia coli | mm | 12
CN(O)C(=O)CCCC(=O)NCCCCN(CCCNC(=O)CCCC(=O)N(C)O)C(=O)CCCC(=O)N(C)O | Escherichia coli | mm | 18

Query: Growth zone; subject: CC1OC(c2cccc(O)c2O)=NC1C(=O)NCCCN(CCCNC(=O)c1cccc(O)c1O)C(=O)C1N=C(c2cccc(O)c2O)OC1C (centres undefined) 0

Cited source for all entries: ChEMBL document CHEMBL1124389
